Please provide measured IC50 for the entries that follow.
# measurement.target: STING (Homo sapiens, UniProt Q86WV6, G230A/H232R/R293Q/R71H)
# Sequence (Q86WV6 whole entry R71H/G230A/H232R/R293Q): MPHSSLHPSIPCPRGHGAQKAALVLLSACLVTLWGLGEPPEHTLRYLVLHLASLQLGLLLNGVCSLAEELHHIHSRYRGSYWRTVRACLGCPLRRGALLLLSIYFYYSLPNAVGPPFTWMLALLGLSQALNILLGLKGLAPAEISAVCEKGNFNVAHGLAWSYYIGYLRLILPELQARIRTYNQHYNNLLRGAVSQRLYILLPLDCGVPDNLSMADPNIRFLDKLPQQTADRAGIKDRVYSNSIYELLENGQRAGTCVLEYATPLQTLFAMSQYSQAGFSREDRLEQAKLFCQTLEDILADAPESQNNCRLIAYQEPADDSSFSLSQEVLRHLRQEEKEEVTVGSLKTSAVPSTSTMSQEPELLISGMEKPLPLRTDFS
# assay.protocol: Reporter gene expression assay in THP1-Dual cells (IRF pathway Lucia luciferase, 2',3'-cGAMP stimulation)
# test.conditions: 10 min preincubation, 5 μM 2',3'-cGAMP, 20 hr, IRF reporter QUANTI-Luc, read-out: THP-1 (HAQ) Activity

Please review the entries below; each comes with its answer.
> print(dat)
                                   molecule                        measurement.target  measured.quantity            result
1  N#Cc1ccc(CNC(=O)Nc2ccc3c(c2)N(Cc2ccccc2)C(=O)CS3)cc1 [Example 12]  STING (Homo sapiens, UniProt Q86WV6, G230A/H232R/R293Q/R71H)               IC50        > 10000 nM
2  O=C(Nc1ccc2c(c1)N(Cc1ccccc1)C(=O)CS2)Nc1ccc2[nH]ccc2c1 [Example 9]  STING (Homo sapiens, UniProt Q86WV6, G230A/H232R/R293Q/R71H)               IC50  1000 to 10000 nM
3  COc1cc(F)c(CN2C(=O)CSc3cc(NC(=O)Nc4ccc5cc[nH]c5c4)ccc32)c(F)c1 [Example 126]  STING (Homo sapiens, UniProt Q86WV6, G230A/H232R/R293Q/R71H)               IC50         ≤ 1000 nM
4  O=C(Nc1ccc2c(c1)OCC(=O)N2Cc1c(F)cccc1Cl)Nc1ccc2cc[nH]c2c1 [Example 93]  STING (Homo sapiens, UniProt Q86WV6, G230A/H232R/R293Q/R71H)               IC50  1000 to 10000 nM
5  O=C(Nc1ccc2c(c1)N(Cc1ccccc1)CC[S+]2[O-])Nc1ccc2cc[nH]c2c1 (stereo not shown) [Example 167]  STING (Homo sapiens, UniProt Q86WV6, G230A/H232R/R293Q/R71H)               IC50        > 10000 nM

Here are 6 molecules. What values of IC50 were reported for them?
1. O=C1CSc2ccc(-c3nnc(Cc4ccccc4)[nH]3)cc2N1Cc1c(F)cccc1Cl [Example 45]
2. O=C(Nc1ccc2c(c1)OCC(=O)N2Cc1ccn[nH]1)Nc1ccc2cc[nH]c2c1 [Example 161]
3. N#Cc1cccc(CN2C(=O)COc3cc(NC(=O)Nc4ccc5cc[nH]c5c4)ccc32)c1 [Example 116]
4. N#Cc1ccc(CN2C(=O)COc3cc(NC(=O)Nc4ccc5cc[nH]c5c4)ccc32)cc1 [Example 123]
5. O=C(NCc1cc[nH]c1)Nc1ccc2c(c1)OCC(=O)N2Cc1ccccc1 [Example 132]
6. O=C(Nc1ccc2c(c1)N(Cc1ccccc1)C(=O)CS2)Nc1ccc2cc[nH]c2c1 [Example 1]

Result:
1. 1000 to 10000 nM
2. > 10000 nM
3. 1000 to 10000 nM
4. 1000 to 10000 nM
5. 1000 to 10000 nM
6. 1000 to 10000 nM

List IC50 for every entry below, keeping the order given.
1. CC(C)(C)c1nc(CN2C(=O)COc3cc(NC(=O)Nc4ccc5cc[nH]c5c4)ccc32)no1 [Example 134]
2. O=C(Nc1ccc2c(c1)OCC(=O)N2Cc1ccc(SC(F)(F)F)cc1)Nc1ccc2cc[nH]c2c1 [Example 106]
3. Nc1cccc(NC(=O)Nc2ccc3c(c2)N(Cc2ccccc2)C(=O)CS3)c1 [Example 25]
4. O=C(Nc1ccc2c(c1)OCC(=O)N2Cc1cc2c(cc1Cl)OCO2)Nc1ccc2cc[nH]c2c1 [Example 103]

Result:
1000 to 10000 nM
≤ 1000 nM
1000 to 10000 nM
≤ 1000 nM

Just so you know, measured IC50 for O=C(Nc1ccc2c(c1)SCCN2c1ccccc1)Nc1ccc2cc[nH]c2c1 [Example 182] came out at ≤ 1000 nM
